Biological target: human GABAA α1β3γ2 receptor (Homo sapiens (Human), UniProt P14867+P18507)
Test: Radioligand binding assay for γ2-containing GABAA subtypes, [3H]Flumazenil competition (α1β3γ2)
Conditions: Log[Ki α1β3γ2 (nM)/Ki α2β2γ1 (nM)]
Assign TRUE whenever LogSel does not fall below 2; assign FALSE whenever it does.

Problem: Please tell me: is the compound C[C@@H]1N=C(c2ncccc2F)c2c(ccc(C(F)(F)F)c2Cl)-n2cc(C(=O)N3CC(C(F)F)C3)nc21 at or over 2 in terms of LogSel?
Solution: TRUE

Problem: Please tell me: is the compound C[C@@H]1N=C(c2ncccc2F)c2c(ccc(Cl)c2Cl)-n2nc(C(=O)N3CCC3)nc21 at or over 2 in terms of LogSel?
Solution: FALSE

Problem: Please tell me: is the compound C[C@@H]1N=C(c2c(F)cccc2F)c2c(ccc(Cl)c2Cl)-n2cc(C#N)nc21 at or over 2 in terms of LogSel?
Solution: FALSE

Problem: Please tell me: is the compound C[C@@H]1N=C(c2ncccc2F)c2c(ccc(C(F)(F)F)c2Cl)-n2nc(C(=O)N3CC[C@H](F)C3)nc21 at or over 2 in terms of LogSel?
Solution: TRUE

Problem: Please tell me: is the compound C[C@@H]1N=C(c2c(F)cccc2F)c2c(ccc(Cl)c2Cl)-n2nc(C(=O)N3CC(OC(F)F)C3)nc21 at or over 2 in terms of LogSel?
Solution: FALSE

Problem: Please tell me: is the compound CC1CN(C(=O)c2nc3n(n2)-c2ccc(C(F)(F)F)c(Cl)c2C(c2ncccc2F)=N[C@H]3C)C1 at or over 2 in terms of LogSel?
Solution: TRUE

Problem: Please tell me: is the compound CO[C@@H]1CCN(C(=O)c2nc3n(n2)-c2ccc(Cl)c(Cl)c2C(c2c(F)cccc2F)=N[C@H]3C)C1 at or over 2 in terms of LogSel?
Solution: TRUE

Problem: Please tell me: is the compound C[C@@H]1N=C(c2c(F)cccc2F)c2c(ccc(C(F)(F)F)c2Cl)-n2nc(C(=O)N3CC(OC(F)F)C3)nc21 at or over 2 in terms of LogSel?
Solution: FALSE

Problem: Please tell me: is the compound C[C@@H]1N=C(c2ncccc2F)c2c(ccc(C(F)(F)F)c2Cl)-n2nc(C(=O)N3CC(OC(F)F)C3)nc21 at or over 2 in terms of LogSel?
Solution: TRUE

Problem: Please tell me: is the compound Cc1c(C(=O)NCCO)nc2n1-c1ccc(C(F)(F)F)c(Cl)c1C(c1ncccc1F)=N[C@H]2C at or over 2 in terms of LogSel?
Solution: TRUE

Problem: Please tell me: is the compound C[C@@H]1N=C(c2c(F)cccc2F)c2c(ccc(C(F)(F)F)c2Cl)-n2nc(NC(=O)N3CCS(=O)(=O)CC3)nc21 at or over 2 in terms of LogSel?
Solution: TRUE

Problem: Please tell me: is the compound C[C@@H]1N=C(c2ncccc2F)c2c(ccc(C(F)(F)F)c2Cl)-n2cc(C(=O)N3CC(F)C3)nc21 at or over 2 in terms of LogSel?
Solution: TRUE

---

I'd appreciate it if you could supply LogSel values for the items below.
Target: human GABAA α1β3γ2 receptor (Homo sapiens (Human), UniProt P14867+P18507)
Assay: Radioligand binding assay for γ2-containing GABAA subtypes, [3H]Flumazenil competition (α1β3γ2)
Details: Log[Ki α1β3γ2 (nM)/Ki α2β2γ1 (nM)]
Output: the number by itself.

Problem: Please report the recorded LogSel for C[C@@H]1N=C(c2ncccc2F)c2c(ccc(C(F)(F)F)c2Cl)-n2c(CO)cnc21 [Example 151] .
Solution: 2.15

Problem: Please report the recorded LogSel for C[C@@H]1N=C(c2ncccc2F)c2c(ccc(Cl)c2Cl)-n2nc(C(=O)N3CC[C@H](F)C3)nc21 [Example 79] .
Solution: 1.89

Problem: Please report the recorded LogSel for C[C@@H]1N=C(c2ncccc2F)c2c(ccc(C(F)(F)F)c2Cl)-n2cc(C(=O)N3CC(C)(O)C3)nc21 [Example 160] .
Solution: 2.30

Problem: Please report the recorded LogSel for C[C@@H]1N=C(c2ncccc2F)c2c(ccc(Cl)c2Cl)-n2nc(C(=O)N3CC4(CCOC4)C3)nc21 [Example 100] .
Solution: 2.34

Problem: Please report the recorded LogSel for C[C@@H]1N=C(c2ncccc2F)c2c(ccc(C(F)(F)F)c2Cl)-n2nc(C(=O)N3CC4(CCO4)C3)nc21 [Example 119] .
Solution: 2.19

Problem: Please report the recorded LogSel for C[C@@H]1N=C(c2ncccc2F)c2c(ccc(Cl)c2Cl)-n2nc(C(=O)N3CC4(CCO4)C3)nc21 [Example 98] .
Solution: 2.00

Problem: Please report the recorded LogSel for Cc1nc2n(n1)-c1ccc(Cl)c(Cl)c1C(c1ncccc1F)=N[C@H]2C [Example 84] .
Solution: 1.54

Problem: Please report the recorded LogSel for C[C@@H]1N=C(c2c(F)cccc2F)c2c(ccc(Cl)c2Cl)-n2nc(C(=O)N3CC4(CCO4)C3)nc21 [Example 94] .
Solution: 2.18

Problem: Please report the recorded LogSel for Cc1nnc(-c2nc3n(n2)-c2ccc(C(F)(F)F)c(Cl)c2C(c2ncccc2F)=N[C@H]3C)o1 [Example 144] .
Solution: 2.26

Problem: Please report the recorded LogSel for COCc1nc2n(n1)-c1ccc(Cl)c(Cl)c1C(c1c(F)cccc1F)=N[C@H]2C [Example 27] .
Solution: 1.79

Problem: Please report the recorded LogSel for C[C@@H]1N=C(c2ncccc2F)c2c(ccc(C(F)(F)F)c2Cl)-n2nc(NC(=O)NC3CC3)nc21 [Example 143] .
Solution: 2.47

Problem: Please report the recorded LogSel for C[C@@H]1N=C(c2c(F)cccc2F)c2c(ccc(C(F)(F)F)c2Cl)-n2c1nc1c2CCC1 [Example 133] .
Solution: 1.55

Problem: Please report the recorded LogSel for C[C@@H]1N=C(c2c(F)cccc2F)c2c(ccc(C(F)(F)F)c2Cl)-n2cc(CO)nc21 [Example 149] .
Solution: 2.13

Problem: Please report the recorded LogSel for C[C@@H]1N=C(c2c(F)cccc2F)c2c(ccc(Cl)c2Cl)-n2nc(OC3COC3)nc21 [Example 92] .
Solution: 1.86

Problem: Please report the recorded LogSel for C[C@H](O)CNC(=O)c1cn2c(n1)[C@H](C)N=C(c1ncccc1F)c1c-2ccc(C(F)(F)F)c1Cl [Example 155] .
Solution: 2.26

Problem: Please report the recorded LogSel for C[C@@H]1N=C(c2c(F)cccc2F)c2c(ccc(Cl)c2Cl)-n2nc(S(N)(=O)=O)nc21 [Example 69] .
Solution: 1.78

Problem: Please report the recorded LogSel for C[C@@H]1N=C(c2c(F)cccc2F)c2c(ccc(Cl)c2Cl)-n2nc(C(=O)NC[C@@H](C)O)nc21 [Example 65] .
Solution: 1.93

Problem: Please report the recorded LogSel for C[C@@H]1N=C(c2c(F)cccc2F)c2c(ccc(C(F)(F)F)c2Cl)-n2nc(C(=O)NC[C@@H](C)O)nc21 [Example 105] .
Solution: 2.57

Problem: Please report the recorded LogSel for C[C@@H]1N=C(c2c(F)cccc2F)c2c(ccc(C(F)(F)F)c2Cl)-n2nc(C(=O)NN3CCCC3)nc21 [Example 118] .
Solution: 2.26

Problem: Please report the recorded LogSel for COC1CN(C(=O)c2nc3n(n2)-c2ccc(Cl)c(Cl)c2C(c2ncccc2F)=NC3)C1 [Example 62] .
Solution: 1.93

Problem: Please report the recorded LogSel for C[C@@H]1N=C(c2c(F)cccc2F)c2c(ccc(C(F)(F)F)c2Cl)-n2nc(N3CCOC3=O)nc21 [Example 121] .
Solution: 2.34

Problem: Please report the recorded LogSel for COCc1cn2c(n1)CN=C(c1c(F)cccc1F)c1c-2ccc(Cl)c1Cl [Example 5] .
Solution: 1.50

Problem: Please report the recorded LogSel for [2H]C([2H])([2H])NC(=O)c1nc2n(n1)-c1ccc(C(F)(F)F)c(Cl)c1C(c1c(F)cccc1F)=N[C@H]2C [Example 34] .
Solution: 2.18

Problem: Please report the recorded LogSel for C[C@@H]1N=C(c2c(F)cccc2F)c2c(ccc(Cl)c2Cl)-n2nc(C(=O)NCC(F)F)nc21 [Example 59] .
Solution: 1.96

Problem: Please report the recorded LogSel for C[C@@H]1N=C(c2c(F)cccc2F)c2c(ccc(Cl)c2Cl)-n2nc(C(=O)NCCF)nc21 [Example 30] .
Solution: 1.96

Problem: Please report the recorded LogSel for C[C@@H]1N=C(c2c(F)cccc2F)c2c(ccc(Cl)c2Cl)-n2nc(C3CC3)nc21 [Example 49] .
Solution: 1.60

Problem: Please report the recorded LogSel for C[C@@H]1N=C(c2ncccc2F)c2c(ccc(C(F)(F)F)c2Cl)-n2cc(CO)nc21 [Example 153] .
Solution: 1.99

Problem: Please report the recorded LogSel for C[C@@H]1N=C(c2ncccc2F)c2c(ccc(C(F)(F)F)c2Cl)-n2cc(C(=O)NCC(C)(C)O)nc21 [Example 159] .
Solution: 2.29

Problem: Please report the recorded LogSel for C[C@@H]1N=C(c2c(F)cccc2F)c2c(ccc(Cl)c2Cl)-n2nc(C(=O)N3CC4(COC4)C3)nc21 [Example 93] .
Solution: 2.59

Problem: Please report the recorded LogSel for C[C@@H]1N=C(c2c(F)cccc2F)c2c(ccc(Cl)c2Cl)-n2nc(C(=O)N3CCS(=O)(=O)CC3)nc21 [Example 36] .
Solution: 2.35
